# Assay text: acute oral toxicity (LD50) on white rats
# Measurement conditions: rat, in vivo; white rats, oral administration
Quantity: LD50 (mg/kg)
Respond with the bare value in mg/kg.

[Q] LD50 lookup needed for C#CCON=C1CC2CCC1(C)C2(C)C (racemic) [racemic active agent] , thanks.
[A] 1400
